TEST TARGET: ShaI/KChIP (Drosophila melanogaster, UniProt P17971)
Construct: expressed in transfected cells; subclone 18-13-20
Sequence (P17971 with tags, fused parts or gaps isoform P17971-1): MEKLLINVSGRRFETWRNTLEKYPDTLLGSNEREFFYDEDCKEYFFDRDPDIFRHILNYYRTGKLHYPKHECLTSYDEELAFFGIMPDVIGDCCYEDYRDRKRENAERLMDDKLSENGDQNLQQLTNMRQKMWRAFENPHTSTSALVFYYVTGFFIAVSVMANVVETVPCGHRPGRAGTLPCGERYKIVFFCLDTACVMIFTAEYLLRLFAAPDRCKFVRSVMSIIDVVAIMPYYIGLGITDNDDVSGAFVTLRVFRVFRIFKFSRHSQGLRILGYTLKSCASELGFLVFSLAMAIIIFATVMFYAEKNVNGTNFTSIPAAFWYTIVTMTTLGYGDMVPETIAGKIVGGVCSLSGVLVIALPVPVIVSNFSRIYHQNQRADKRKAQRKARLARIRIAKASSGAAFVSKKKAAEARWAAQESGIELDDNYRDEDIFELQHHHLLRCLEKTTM
PROTOCOL TEXT: ShaI/KChIP FLIPR membrane potential assay, KCl depolarization
Type: cell-based
RUN CONDITIONS: ShaI/KChIP 20 cells, three days; standard deviation 5 mM; read-out: EC50 mean
OUTCOME MEASURE: EC50

Fill blank: measured EC50 of the compound [Cl-].[K+] [KCl, reference compound] is ____. 36 mM

###

TEST TARGET: ShaI/KChIP (Drosophila melanogaster)
Construct: expressed in transfected cells; subclone 18-13-20
PROTOCOL TEXT: ShaI/KChIP FLIPR membrane potential assay, KCl depolarization
Type: cell-based
OUTCOME MEASURE: inhibition at 10 µM (%)
Numbers only, in %.

MOLECULE: Cc1c(C(=O)NCc2ccc(F)cc2)sc(=O)n1Cc1ccc(Cl)c(Cl)c1
TEST TARGET: ShaI/KChIP (Drosophila melanogaster)
inhibition at 10 µM (%): 38

MOLECULE: Cc1ccsc1C1(C)C(=O)Nc2ccccc21 (centres unmarked)
TEST TARGET: ShaI/KChIP (Drosophila melanogaster)
inhibition at 10 µM (%): 56.8

MOLECULE: CC1(Cc2ccc(F)c(Cl)c2)C(=O)Nc2ccc(F)cc21 (centres unmarked)
TEST TARGET: ShaI/KChIP (Drosophila melanogaster)
inhibition at 10 µM (%): 52.6

MOLECULE: CC1(Cc2ccccc2C#N)C(=O)Nc2ccccc21 (centres unmarked)
TEST TARGET: ShaI/KChIP (Drosophila melanogaster)
inhibition at 10 µM (%): 39.7

MOLECULE: Cc1ccc(C2(Cc3ccncc3)C(=O)Nc3cc(F)ccc32)cc1 (centres unmarked)
TEST TARGET: ShaI/KChIP (Drosophila melanogaster)
inhibition at 10 µM (%): 48.5

MOLECULE: CC1ON=C(c2cccc(Cl)c2)N(Cc2cccc(C#N)c2)C1=O (centres unmarked)
TEST TARGET: ShaI/KChIP (Drosophila melanogaster)
inhibition at 10 µM (%): 38.7

Please report inhibition at 10 µM for every entry that follows.
1. CC1(Cc2cccc(F)c2)C(=O)Nc2ccc(OC(F)(F)F)cc21 (centres unmarked)
2. Cc1cc(CC2(c3cccc(F)c3)C(=O)Nc3cc(F)ccc32)no1 (centres unmarked)
3. CC1(Cc2ccccc2C#N)C(=O)Nc2cc(-c3ccccc3Cl)ccc21 (centres unmarked)
4. Cc1cccnc1C1=NOC(Cc2ccccc2)C(=O)N1CCOc1ccc(F)cc1 (centres unmarked)
5. CCOc1ccc(C2=NOC(C)C(=O)N2Cc2cccc(F)c2)cc1 (centres unmarked)
6. COc1ccc2c(c1)C(C)(Cc1ccc(Cl)s1)C(=O)N2 (centres unmarked)
7. Cc1noc(C)c1CC1(c2ccccc2)C(=O)Nc2c(Cl)cccc21 (centres unmarked)

1: 33.5; 2: 54.9; 3: 63.3; 4: 36.2; 5: 52.7; 6: 38.3; 7: 33

Please give inhibition at 10 µM for each item listed below.
1. Cc1nc(CC2(c3ccccc3)C(=O)Nc3cc(F)ccc32)cs1 (centres unmarked)
2. Cc1ccc(C2(Cc3c(C)noc3C)C(=O)Nc3cc(F)ccc32)cc1 (centres unmarked)
3. CCC1(c2sccc2C)C(=O)Nc2ccccc21 (centres unmarked)
4. COc1ccc(Cl)cc1C1=NOCC(=O)N1CCOc1ccc(F)cc1
5. Cc1c(C(=O)NCc2ccc(C(F)(F)F)cc2)sc(=O)n1CCc1c[nH]c2ccccc12
6. CC1ON=C(c2ccc(N(C)C)cc2)N(Cc2cccc(F)c2)C1=O (centres unmarked)
7. NC(=O)c1cccc(CC2(c3cccc(F)c3)C(=O)Nc3cc(F)ccc32)c1 (centres unmarked)
8. Cc1ccc(C2(Cc3cc(C)on3)C(=O)Nc3ccc(OC(F)(F)F)cc32)cc1 (centres unmarked)

[42.5, 35.2, 52, 38.7, 33.3, 41.3, 54.1, 40.1]

Can you give me inhibition at 10 µM for all of these, one by one?
1. CC1(Cc2cc(Cl)ccc2C(F)(F)F)C(=O)Nc2ccccc21 (centres unmarked)
2. CC1(Cc2ccccc2C#N)C(=O)Nc2cc(OC(F)(F)F)ccc21 (centres unmarked)

1. 32.5
2. 31.2

###

TEST TARGET: ShaI/KChIP (Drosophila melanogaster)
Construct: expressed in transfected cells; subclone 18-13-20
PROTOCOL TEXT: ShaI/KChIP FLIPR membrane potential assay, KCl depolarization
Assay type: cell-based
RUN CONDITIONS: ShaI/KChIP 20 cells, three consecutive days, duplicate plates; read-out: IC50 range
pIC50: −log10 of the molar value.
OUTCOME MEASURE: pIC50

Entry NC(N)=NC(=O)c1nc(Cl)c(N)nc1N [Amiloride, reference compound] has what pIC50? 4.54 to 4.70
